# Test system: Vero E6
# PROTOCOL: relative viability EC50 (midpoint between 100% and the lowest measured viability); higher = less toxic
# MEASUREMENT CONTEXT: 72 h
MEASUREMENT NAME: relative viability EC50

>>> experimental_result("Cc1ncc(C[n+]2csc(CCOP(=O)(O)OP(=O)(O)O)c2C)c(N)n1 [thiamine-pyrophosphate]")
"> 10 µM"
>>> experimental_result("CC(O)COC[C@H]1O[C@@H]2O[C@H]3[C@H](O)[C@@H](O)[C@@H](O[C@H]4[C@H](O)[C@@H](O)[C@@H](O[C@H]5[C@H](O)[C@@H](O)[C@@H](O[C@H]6[C@H](O)[C@@H](O)[C@@H](O[C@H]7[C@H](O)[C@@H](O)[C@@H](O[C@H]8[C@H](O)[C@@H](O)[C@@H](O[C@H]1[C@H](O)[C@H]2O)O[C@@H]8COCC(C)O)O[C@@H]7COCC(C)O)O[C@@H]6COCC(C)O)O[C@@H]5COCC(C)O)O[C@@H]4COCC(C)O)O[C@@H]3COCC(C)O (stereo partly drawn) [hydroxypropyl-beta-cyclodextrin]")
"> 10 µM"
>>> experimental_result("CN[C@@H]1[C@@H](O)[C@@H](O[C@@H]2[C@@H](O)[C@H](O[C@H]3O[C@H](CN)[C@@H](O)[C@H](O)[C@H]3O)[C@@H](N)C[C@H]2NC(=O)[C@@H](O)CN)OC[C@]1(C)O")
"> 10 µM"
>>> experimental_result("CS(=O)(=O)c1ccc(-c2cc(Br)sc2-c2ccc(F)cc2)cc1")
"> 10 µM"

Fill in relative viability EC50 for each of the 2 molecules listed.
1. COc1cccc(-c2ccc([C@@H](Oc3cc(-c4ccc(C[C@H](N)C(=O)O)cc4)nc(N)n3)C(F)(F)F)cc2)c1
2. CN(C)CCNc1nc2cc(O)ccc2c2c1C(=O)c1ccccc1-2

Solution:
["> 10 µM", "0.634 µM"]

Fill in relative viability EC50 for each of the 2 molecules listed.
1. COc1c(C)cnc(Cn2cc(C#CCC(C)(C)O)c3c(Cl)nc(N)nc32)c1C
2. NC(=O)c1cc([N+](=O)[O-])cc([N+](=O)[O-])c1 [nitromide]

Solution:
0.413 µM
> 10 µM

Fill in relative viability EC50 for each of the 6 molecules listed.
1. [O-][n+]1cccc(CO)c1 [mepiroxol]
2. C[C@]12C=CC(=O)C=C1CC[C@@H]1[C@@H]2[C@@H](O)C[C@@]2(C)[C@H]1CC[C@]2(O)C(=O)COP(=O)(O)O [prednisolone-sodium-phosphate]
3. CCOC(=O)[C@H](CCc1ccccc1)N[C@@H](C)C(=O)N1Cc2cc(OC)c(OC)cc2C[C@H]1C(=O)O
4. c1ccc2c(c1)Sc1ccccc1N2C[C@H]1CN2CCC1CC2
5. CNC(=O)c1c(F)cccc1Nc1nc(Nc2cc3c(cc2OC)CCN3C(=O)CN(C)C)nc2[nH]ccc12
6. CC(C)(Sc1cc(C(C)(C)C)c(O)c(C(C)(C)C)c1)Sc1cc(C(C)(C)C)c(O)c(C(C)(C)C)c1

Solution:
["> 10 µM", "> 10 µM", "> 10 µM", "> 10 µM", "> 10 µM", "> 10 µM"]
